Tested on: SNB-19
assay explanation: NCI tumour cell line growth inhibition, 48 h
Active and inactive are the calls of the source. Rule as the data show it: active = GI50 up to about 1.1 µM and inactive = higher.
experimental readout: GI50

INSERT INTO assay_data (compound, measured_value) VALUES
  ('CC(C)(C)C(=O)Nc1c(C=O)ccc2[nH]cnc12', '> 100 µM (inactive)'),
  ('C1C2CC3CC1CC(Nc1nc(NC45CC6CC(CC(C6)C4)C5)nc(NC45CC6CC(CC(C6)C4)C5)n1)(C2)C3', '43.5 µM (inactive)'),
  ('O=C(Nc1ccc([N+](=O)[O-])cc1)C1C(=O)C(=O)N(c2ccc([N+](=O)[O-])cc2)C1=O (stereo not given)', '> 100 µM (inactive)'),
  ('CCN1C(=O)/C(=C\Nc2ccccc2)S/C1=N/Nc1ncc(CC(=O)Nc2ccccc2C)s1', '> 100 µM (inactive)'),
  ('CCOC1CC2OC(=O)C1C=C2C(=O)OC (stereo not given)', '28 µM (inactive)');
